Tested on: U-251
test protocol: NCI tumour cell line growth inhibition, 48 h
Active and inactive are the calls of the source. Cut-off read from the data, not from the text of the source: active = GI50 up to about 1.1 µM and inactive = higher.
Result category, one only: active, inactive

These solved cases illustrate the format of a correct answer.
CCO/C=N\C1=C(C#N)SC2=N/C(=C\c3ccc(OC)cc3)C(=O)N21
inactive
CS[C@]12C(=O)C[C@@]3(C)[C@@H](CC[C@]3(O)C(=O)CO)[C@@H]1CCC1=CC(=O)CC[C@@]12C
inactive
CSc1cc(Cl)c(C)cc1S(=O)(=O)NC(=O)NNc1ccc(F)cc1
inactive
COc1cc(OC)c2nc(C)c(CCCl)c(Cl)c2c1
inactive

query: Per the assay record, what outcome was assigned to CC1(C)OC2OC(/C=C/[N+](=O)[O-])C3OC(C)(C)OC3C2O1 (stereo unspecified) ?
result: inactive

query: Also, N#CC(C(=N/NC(N)=S)/C(=N/NC(N)=S)C(C#N)c1ccc(Cl)cc1)c1ccc(Cl)cc1 (stereo unspecified) please.
result: inactive

query: Also, `COC(=O)Nc1cc(OCCCOC(C)=O)c2[nH]c(C(=O)OC)cc2c1C[C@H](O)CO` please.
result: inactive

query: Also, Cc1cc2nc(O)c(C(C)C(=O)c3ccc(Cl)cc3)nc2cc1C (stereo unspecified) please.
result: inactive

query: Also, CCC(/C(=N\Nc1c(Cl)cc(Cl)cc1Cl)c1ccccc1)n1ccnc1C (stereo unspecified) please.
result: inactive

query: Also, `CC(C)(C)N1CSC(=S)N(Cc2ccco2)C1` please.
result: inactive
